study-target: human mAChR M4 (Homo sapiens, UniProt P08173)
protocol-description: mAChR M4 cell-based functional assay: calcium mobilization (Fluo-4, FDSS), potentiation of EC20 acetylcholine response in hM4-Gqi5 CHO-K1 cells
condition-description: potentiation of EC20 acetylcholine response, calcium mobilization, human M4
Assign pEC50 to each entry below.
Numbers only, as −log10 of the molar value.

Cc1c(N2CCc3ncc(-c4cnccc4C(F)(F)F)cc3C2)nn2c(=O)ccnc2c1C
6.43
COc1cc(-c2cnc3c(c2)CN(c2nn4c(=O)ccnc4cc2C)CC3)c(Cl)cn1
6.13
Cc1c(N2CCc3ncc(-c4cnccc4Cl)cc3C2)nn2c(=O)ccnc2c1C
6.91
Cc1cc2nc(C3CC3)cc(=O)n2nc1N1CCc2ncc(C(F)(F)F)cc2C1
7.42
COCc1cc(=O)n2nc(N3CCc4ncc(-c5cc(F)ccc5C)cc4C3)c(C)cc2n1
6.61
Cc1cc2nccc(=O)n2nc1N1CCc2ncc(-c3ccc(C(F)(F)F)nc3)cc2C1
6.08

For each entry beneath this line, provide reported pEC50.
1. Cc1cc2ncc(Cl)c(=O)n2nc1N1CCc2ncc(-c3ccnn3C)cc2C1
2. Cc1ccc(-c2cnc3c(c2)CN(c2nn4c(=O)cc(C(F)F)nc4c(C)c2C)CC3)cn1

Output:
1. 6.79
2. 6.90

The following compounds each have a reported value; give each one's pEC50.
1. Cc1cc2ncc(Cl)c(=O)n2nc1N1CCc2ncc(C3CC3)cc2C1
2. CCc1cc(=O)n2nc(N3CCc4ncc(-c5ccc(C)nc5)cc4C3)c(C)c(C)c2n1
3. Cc1cc2nccc(=O)n2nc1N1CCc2ncc(-c3ccn(C)c(=O)c3)cc2C1
4. Cc1cc2nccn2cc1-c1cnc2c(c1)CN(c1nn3c(=O)cc(C(F)F)nc3c(C)c1C)CC2

Output:
7.60
6.97
5.60
6.28

###

study-target: human mAChR M4 (Homo sapiens, UniProt P08173)
Construct: expressed in transfected cells; host or cells: CHO-K1 (American Type Culture Collection), stably expressing hM4 and Gqi5
protocol-description: mAChR M4 cell-based functional assay: calcium mobilization (Fluo-4, FDSS), potentiation of EC20 acetylcholine response in hM4-Gqi5 CHO-K1 cells
condition-description: CHO-K1, % ACh maximum at 30 μM; human M4
I'd be grateful if you could share measured Emax at 30 µM for these entries.
One number for each entry, in %.

Reference set, count: 5
Cc1cc2ncc(Cl)c(=O)n2nc1N1CCc2ncc(C3CC3)cc2C1
75
Cc1cc(=O)n2nc(N3CCc4ncc(-c5ccc(C)c(F)c5)cc4C3)c(C)c(C)c2n1
80
Cc1cc2nccc(=O)n2nc1N1CCc2ncc(-c3cccnn3)cc2C1
59
Cc1c(N2CCc3ncc(-c4cncc(C(F)(F)F)c4)cc3C2)nn2c(=O)ccnc2c1C
83
Cc1cc(-c2cnc3c(c2)CN(c2nn4c(=O)ccnc4cc2C)CC3)n(C)n1
98

I would be grateful if you could provide Emax at 30 µM for each of the following entries.
1. Cc1cc(=O)n2nc(N3CCc4ncc(NCc5csc(C)n5)cc4C3)c(C)c(C)c2n1
2. Cc1c(N2CCc3ncc(-c4ccc(N(C)C)nc4)cc3C2)nn2c(=O)ccnc2c1C
3. Cc1c(N2CCc3ncc(-c4ccc(N5CCCCC5)nc4)cc3C2)nn2c(=O)ccnc2c1C

Output:
1: 53; 2: 70; 3: 79

###

study-target: human mAChR M4 (Homo sapiens)
Construct: expressed in transfected cells; host or cells: CHO-K1 (American Type Culture Collection), stably expressing hM4 and Gqi5
Sequence (P08173 1-479): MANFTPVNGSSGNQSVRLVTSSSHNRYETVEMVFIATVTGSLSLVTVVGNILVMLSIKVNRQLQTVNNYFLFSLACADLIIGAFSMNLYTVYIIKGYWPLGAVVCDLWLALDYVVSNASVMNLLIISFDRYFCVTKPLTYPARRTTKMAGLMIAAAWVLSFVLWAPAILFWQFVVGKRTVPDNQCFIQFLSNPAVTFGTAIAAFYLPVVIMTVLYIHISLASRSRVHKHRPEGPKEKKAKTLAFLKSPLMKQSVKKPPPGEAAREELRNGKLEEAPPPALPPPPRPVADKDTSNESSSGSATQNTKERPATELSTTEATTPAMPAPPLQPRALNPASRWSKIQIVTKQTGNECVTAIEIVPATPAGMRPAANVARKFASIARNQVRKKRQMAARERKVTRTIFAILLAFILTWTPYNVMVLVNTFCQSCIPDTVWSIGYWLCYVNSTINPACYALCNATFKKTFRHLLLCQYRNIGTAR
protocol-description: mAChR M4 cell-based functional assay: calcium mobilization (Fluo-4, FDSS), potentiation of EC20 acetylcholine response in hM4-Gqi5 CHO-K1 cells
condition-description: potentiation of EC20 acetylcholine response, calcium mobilization, human M4
Would you mind telling me the reported pEC50 of each entry?
Numbers only, as −log10 of the molar value.

Cc1c(N2CCc3ncc(C(F)(F)F)cc3C2C)nn2c(=O)ccnc2c1C (single isomer, unassigned) [Compound 1-385]
5.76

// batch mode: one pEC50 value per listed entry
1. Cc1cc2nccc(=O)n2nc1N1CCc2ncc(N3CCCn4nccc43)cc2C1 [Compound 2-1]
2. Cc1cc2nccc(=O)n2nc1N1CCc2ncc(Nc3ccnc(C)c3F)cc2C1 [Compound 2-153]
3. COCc1cc(=O)n2nc(N3CCc4ncc(-c5ccsc5)cc4C3)c(C)cc2n1 [Compound 1-370]
4. Cc1c(N2CCc3ncc(-c4ccc(Cl)nc4Cl)cc3C2)nn2c(=O)cc(C(F)F)nc2c1C [Compound 1-174]

Output:
1. 7.68
2. 7.57
3. 6.82
4. 6.35

Report pEC50 for every entry below.
1. Cc1c(N2CCc3ncc(-c4ccc(N(C)C)nc4)cc3C2)nn2c(=O)cc(C(F)F)nc2c1C [Compound 1-92]
2. Cc1cc(F)ccc1-c1cnc2c(c1)CN(c1nn3c(=O)ccnc3cc1C)CC2 [Compound 1-443]

Output:
6.47
6.68
